Entries with reported MIC on Staphylococcus epidermidis ATCC 12228

{"SMILES": "CC[C@H]1OC(=O)[C@H](C)[C@@H](O[C@H]2C[C@@](C)(OC)[C@@H](O)[C@H](C)O2)[C@H](C)[C@@H](O[C@@H]2O[C@H](C)C[C@H](N(C)C)[C@H]2O)[C@](C)(OC)C[C@@H](C)CN(C)[C@H](C)[C@@H](O)[C@]1(C)O", "MIC (µg/mL)": 0.1}
{"SMILES": "CC[C@H]1OC(=O)[C@H](C)[C@@H](O[C@H]2C[C@@](C)(OC)[C@@H](O)[C@H](C)O2)[C@H](C)[C@@H](O[C@@H]2O[C@H](C)C[C@H](N(C)C)[C@H]2O)[C@](C)(OC)C[C@@H](C)CN(C)[C@H](C)[C@@H](OC)[C@]1(C)O", "MIC (µg/mL)": 1.56}
{"SMILES": "CC[C@H]1OC(=O)[C@H](C)[C@@H](O[C@H]2C[C@@](C)(OC)[C@@H](OC)[C@H](C)O2)[C@H](C)[C@@H](O[C@@H]2O[C@H](C)C[C@H](N(C)C)[C@H]2O)[C@](C)(OC)C[C@@H](C)CN(C)[C@H](C)[C@@H](OC)[C@]1(C)O", "MIC (µg/mL)": 3.12}
{"SMILES": "CC[C@H]1OC(=O)[C@H](C)[C@@H](O[C@H]2C[C@@](C)(OC)[C@@H](O)[C@H](C)O2)[C@H](C)[C@@H](O[C@@H]2O[C@H](C)C[C@H](N(C)C)[C@H]2O)[C@](C)(O)C[C@@H](C)CN(C)[C@H](C)[C@@H](OC)[C@]1(C)O", "MIC (µg/mL)": 0.1}
{"SMILES": "CC[C@H]1OC(=O)[C@H](C)[C@@H](O[C@H]2C[C@@](C)(OC)[C@@H](O)[C@H](C)O2)[C@H](C)[C@@H](O[C@@H]2O[C@H](C)C[C@H](N(C)C)[C@H]2O)[C@](C)(O)C[C@@H](C)CN(C)[C@H](C)[C@@H](O)[C@]1(C)O", "MIC (µg/mL)": 0.1}

====

Entries with reported log10(MIC) on ATCC 10240
READOUT NAME: log10(MIC) (log10 of the value in µg/mL)

{"SMILES": "CC[C@H]1OC(=O)[C@H](C)[C@@H](O[C@H]2C[C@@](C)(OC)[C@@H](O)[C@H](C)O2)[C@H](C)[C@@H](O[C@@H]2O[C@H](C)C[C@H](N(C)C)[C@H]2O)[C@](C)(O)C[C@@H](C)CN(C)[C@H](C)[C@@H](O)[C@]1(C)O", "READOUT NAME": "log10(MIC)", "RESULT NUMBER": -0.41}
{"SMILES": "CC[C@H]1OC(=O)[C@H](C)[C@@H](O[C@H]2C[C@@](C)(OC)[C@@H](OC)[C@H](C)O2)[C@H](C)[C@@H](O[C@@H]2O[C@H](C)C[C@H](N(C)C)[C@H]2O)[C@](C)(OC)C[C@@H](C)CN(C)[C@H](C)[C@@H](OC)[C@]1(C)O", "READOUT NAME": "log10(MIC)", "RESULT NUMBER": 0.49}
{"SMILES": "CC[C@H]1OC(=O)[C@H](C)[C@@H](O[C@H]2C[C@@](C)(OC)[C@@H](O)[C@H](C)O2)[C@H](C)[C@@H](O[C@@H]2O[C@H](C)C[C@H](N(C)C)[C@H]2O)[C@](C)(OC)C[C@@H](C)CN(C)[C@H](C)[C@@H](O)[C@]1(C)O", "READOUT NAME": "log10(MIC)", "RESULT NUMBER": -0.10}
{"SMILES": "CC[C@H]1OC(=O)[C@H](C)[C@@H](O[C@H]2C[C@@](C)(OC)[C@@H](O)[C@H](C)O2)[C@H](C)[C@@H](O[C@@H]2O[C@H](C)C[C@H](N(C)C)[C@H]2O)[C@](C)(O)C[C@@H](C)CN(C)[C@H](C)[C@@H](OC)[C@]1(C)O", "READOUT NAME": "log10(MIC)", "RESULT NUMBER": -1.00}
{"SMILES": "CC[C@H]1OC(=O)[C@H](C)[C@@H](O[C@H]2C[C@@](C)(OC)[C@@H](O)[C@H](C)O2)[C@H](C)[C@@H](O[C@@H]2O[C@H](C)C[C@H](N(C)C)[C@H]2O)[C@](C)(OC)C[C@@H](C)CN(C)[C@H](C)[C@@H](OC)[C@]1(C)O", "READOUT NAME": "log10(MIC)", "RESULT NUMBER": -0.11}

====

- Tested on: Pseudomonas aeruginosa NCTC 10490
- ASSAY COMMENT: Antibacterial in vitro activity in comparison with azithromycin (Table 3)
- Format: cell-based
- MEASUREMENT SETUP: NCTC10490, Brain hearth Bouillon, 24-48 hours, 37° C., inoculum 10^-5 -10^-6 cfu/mL
READOUT NAME: MIC (µg/mL)

{"SMILES": "CC[C@H]1OC(=O)[C@H](C)[C@@H](O[C@H]2C[C@@](C)(OC)[C@@H](O)[C@H](C)O2)[C@H](C)[C@@H](O[C@@H]2O[C@H](C)C[C@H](N(C)C)[C@H]2O)[C@](C)(OC)C[C@@H](C)CN(C)[C@H](C)[C@@H](OC)[C@]1(C)O", "RESULT NUMBER": 100}
{"SMILES": "CC[C@H]1OC(=O)[C@H](C)[C@@H](O[C@H]2C[C@@](C)(OC)[C@@H](OC)[C@H](C)O2)[C@H](C)[C@@H](O[C@@H]2O[C@H](C)C[C@H](N(C)C)[C@H]2O)[C@](C)(OC)C[C@@H](C)CN(C)[C@H](C)[C@@H](OC)[C@]1(C)O", "RESULT NUMBER": 200}
{"SMILES": "CC[C@H]1OC(=O)[C@H](C)[C@@H](O[C@H]2C[C@@](C)(OC)[C@@H](O)[C@H](C)O2)[C@H](C)[C@@H](O[C@@H]2O[C@H](C)C[C@H](N(C)C)[C@H]2O)[C@](C)(O)C[C@@H](C)CN(C)[C@H](C)[C@@H](OC)[C@]1(C)O", "RESULT NUMBER": 25}
{"SMILES": "CC[C@H]1OC(=O)[C@H](C)[C@@H](O[C@H]2C[C@@](C)(OC)[C@@H](O)[C@H](C)O2)[C@H](C)[C@@H](O[C@@H]2O[C@H](C)C[C@H](N(C)C)[C@H]2O)[C@](C)(O)C[C@@H](C)CN(C)[C@H](C)[C@@H](O)[C@]1(C)O", "RESULT NUMBER": 100}
{"SMILES": "CC[C@H]1OC(=O)[C@H](C)[C@@H](O[C@H]2C[C@@](C)(OC)[C@@H](O)[C@H](C)O2)[C@H](C)[C@@H](O[C@@H]2O[C@H](C)C[C@H](N(C)C)[C@H]2O)[C@](C)(OC)C[C@@H](C)CN(C)[C@H](C)[C@@H](O)[C@]1(C)O", "RESULT NUMBER": 100}
